The reported measurements were obtained from patent US6768007B2.

- Test system: mock-infected H9 cells
- assayComment: Cytotoxicity in mock-infected (uninfected) H9 cells
- Type: cell-based
testReadout: Cytotoxicity IC50 (µg/mL)
Quick reminder: number only, in µg/mL, skip the unit.

stdin: What does the data say about its Cytotoxicity IC50? Entry: CC(=O)OCc1c(C)c2ccc3c(c2oc1=O)[C@@H](OC(=O)[C@@]12CC[C@@](C)(C(=O)O1)C2(C)C)[C@@H](OC(=O)[C@@]12CC[C@@](C)(C(=O)O1)C2(C)C)C(C)(C)O3 (relative stereo) [Compound 8]
stdout: 18.80

stdin: What does the data say about its Cytotoxicity IC50? Entry: Cc1c(CO)c(=O)oc2c3c(ccc12)OC(C)(C)[C@H](OC(=O)[C@@]12CCC(C)(C(=O)O1)C2(C)C)[C@@H]3OC(=O)[C@@]12CCC(C)(C(=O)O1)C2(C)C (relative stereo) [Compound 11]
stdout: 21.2

stdin: What does the data say about its Cytotoxicity IC50? Entry: Cc1cc(=O)oc2c3c(c(CN)cc12)OC(C)(C)[C@H](OC(=O)[C@@]12CC[C@@](C)(C(=O)O1)C2(C)C)[C@@H]3OC(=O)[C@@]12CC[C@@](C)(C(=O)O1)C2(C)C (relative stereo) [Compound 15]
stdout: 24.1

stdin: What does the data say about its Cytotoxicity IC50? Entry: CC(=O)OCc1cc2ccc3c(c2oc1=O)[C@@H](OC(=O)[C@@]12CCC(C)(C(=O)O1)C2(C)C)[C@@H](OC(=O)[C@@]12CCC(C)(C(=O)O1)C2(C)C)C(C)(C)O3 (relative stereo) [Compound 7]
stdout: 3.34
